# TESTED TARGET: Prostaglandin G/H synthase 2 (Homo sapiens) (UniProt P35354)
# Sequence (P35354 whole entry): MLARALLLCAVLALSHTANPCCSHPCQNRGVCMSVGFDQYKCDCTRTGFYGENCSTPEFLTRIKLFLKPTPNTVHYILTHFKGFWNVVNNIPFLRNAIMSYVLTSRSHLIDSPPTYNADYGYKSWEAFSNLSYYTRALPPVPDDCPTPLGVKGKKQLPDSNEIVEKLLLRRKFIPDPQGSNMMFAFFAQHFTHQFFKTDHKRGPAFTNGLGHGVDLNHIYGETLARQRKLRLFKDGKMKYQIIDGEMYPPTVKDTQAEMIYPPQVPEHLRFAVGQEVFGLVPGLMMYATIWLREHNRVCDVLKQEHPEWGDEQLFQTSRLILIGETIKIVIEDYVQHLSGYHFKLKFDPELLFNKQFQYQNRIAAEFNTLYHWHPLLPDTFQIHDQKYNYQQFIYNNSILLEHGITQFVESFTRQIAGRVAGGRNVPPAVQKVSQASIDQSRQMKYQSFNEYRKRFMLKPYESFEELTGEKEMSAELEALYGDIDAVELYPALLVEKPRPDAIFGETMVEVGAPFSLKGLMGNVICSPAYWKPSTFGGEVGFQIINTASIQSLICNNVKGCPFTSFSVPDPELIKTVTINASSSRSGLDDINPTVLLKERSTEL
# ASSAY SETUP: Blood, at 10 µM
# Description: Inhibition of COX2 in LPS-stimulated human whole blood assessed as inhibition of PGE2 production at 10 uM by radioimmunoassay
ASSAY READOUT: inhibition (%)
Output spec: scalar in %, unitless text.

Solved entries (count: 3):
{"COMPOUND": "Nn1c(SC2CCCCC2)nc2sc(-c3ccccc3)cc2c1=O", "U": "%", "RECORDED MEASUREMENT": 90}
{"COMPOUND": "Nn1c(SC(C(=O)O)c2ccccc2)nc2ccc(Br)cc2c1=O (stereo not given)", "U": "%", "RECORDED MEASUREMENT": 70}
{"COMPOUND": "CC(Sc1nc2ccccc2c(=O)n1N)C(=O)O (stereo not given)", "U": "%", "RECORDED MEASUREMENT": 88}

Q) Respond only with inhibition recorded for `CS(=O)(=O)Nn1c(Sc2ccc([N+](=O)[O-])cc2[N+](=O)[O-])nc2sc(-c3ccccc3)cc2c1=O`
A) 100

Q) Respond only with inhibition recorded for `Nn1c(Sc2ccc([N+](=O)[O-])cc2[N+](=O)[O-])nc2sc(-c3ccccc3)cc2c1=O`
A) 75
